- PROTOCOL: viability loss with TRAIL in NB7+C8 cells, primary screen, TRAIL sensitizer project, cell-based, ATPlite luminescence (AID 624354)
- CONDITIONS USED: at 10 µM, hits give high values
The campaign covered roughly 360,000 compounds. About 3,800 (1.1%) were called active. For the sample, actives were picked, then their nearest neighbours and some compounds at random.
Task for the reader: assign each of the following compounds its reported inhibition (viability loss, TRAIL sensitization).
Give bare numbers, in %.

COC(C)(C)[C@]12CC(O)(C(C)C)ON1[C@H]1CCCCC1N2O (some centres undefined)	-21.2

Provide each entry's inhibition (viability loss, TRAIL sensitization) from the list below.
1. Cn1nc(C(C)(C)C)c(NC(=O)c2sccc2Cl)c1C(C)(C)C
2. CN(CCO)c1ccc(/C=N/Nc2nncc3ccccc23)cc1
3. O=C(c1cc2c(s1)CCC2)N1CCN(c2ccccc2)CC1
4. CN(Cc1cccs1)C(=O)CN1C(=O)c2ccccc2S1(=O)=O
5. COc1ccc(/C=C/c2noc(-c3ccccc3OC(C)=O)n2)cc1

Output:
15.6
95.3
-1.76
-16.6
12.1

Provide each entry's inhibition (viability loss, TRAIL sensitization) from the list below.
1. Cn1c(NCc2cccnc2)nc2cc(-c3ccc(F)cc3)sc2c1=O
2. Cc1ccc(C(=O)NC(C)C(c2cccs2)N2CCOCC2)cc1C (centres undefined)
3. COc1cccc2c1OCC(C(=O)NCc1ccc(Cl)cc1Cl)=C2
4. COc1ccc(N2CCN(C(=O)C3CCN(S(=O)(=O)c4ccc(C)cc4)CC3)CC2)cc1

Output:
1. 12.2
2. -23.4
3. 12.2
4. -4.63

Provide each entry's inhibition (viability loss, TRAIL sensitization) from the list below.
1. Cc1cccc(CC2(O)C(=O)Nc3ccccc32)n1 (centres undefined)
2. COc1ccc(-c2nc(-c3ccccc3)no2)c(OC)c1
3. CC1CN(C(=O)CCC(=O)NCCCN2CCC(Cc3ccccc3)CC2)c2cc(Cl)ccc2O1 (centres undefined)
4. O=C(CN1C(=O)c2ccccc2S1(=O)=O)N1CCc2ccccc21

Output:
[-8.54, 83, 40.8, 61.8]

Provide each entry's inhibition (viability loss, TRAIL sensitization) from the list below.
1. COc1ccc(C2c3c(C)nn(-c4ccccc4)c3NC(=O)N2c2ccccc2)cc1 (centres undefined)
2. CN(C)NC(=O)C(NC(=O)c1ccc(N)cc1)C12CC3CC(CC(C3)C1)C2 (centres undefined)
3. O=C(CN1CCN(S(=O)(=O)c2ccc(Cl)s2)CC1)NCc1ccc(Cl)cc1
4. COc1ccc(OC)c(/C=C/C(=O)c2ccc3c(c2)OCO3)c1

Output:
[-5.29, -0.166, 15.3, 12.1]

Provide each entry's inhibition (viability loss, TRAIL sensitization) from the list below.
1. CCOc1ccc(Br)cc1S(=O)(=O)Nc1ccc(C(=O)OC(C)C(=O)N(C)c2ccccc2)cc1 (centres undefined)
2. CCN(CC(=O)NC1CCS(=O)(=O)C1)c1nc(-c2cccnc2)nc2ccccc12 (centres undefined)

Output:
[9.56, 11.4]

Provide each entry's inhibition (viability loss, TRAIL sensitization) from the list below.
1. C[C@H]1COc2cc(N3CCSCC3)ccc2S(=O)(=O)N1
2. COc1ccc(OC)c(Cc2cnc3nc(N)nc(N)c3c2C)c1

Output:
1. -6.12
2. 84

Provide each entry's inhibition (viability loss, TRAIL sensitization) from the list below.
1. O=C(/C=C/c1ccc2c(c1)OCCO2)c1ccc(O)cc1
2. O=C(COC(=O)c1c(Cl)cccc1Cl)Nc1cccc(S(=O)(=O)NC2=NCCCCC2)c1
3. Cc1cc(Br)cn2c(Cc3ccccc3C(F)(F)F)c(-c3ccc(Cl)cc3)nc12

Output:
[58.1, -2, 22.1]

Provide each entry's inhibition (viability loss, TRAIL sensitization) from the list below.
1. Cn1c(=O)c2c(ncn2CC(COCc2ccccc2Cl)OCc2ccccc2Cl)n(C)c1=O (centres undefined)
2. O=C(COC(=O)c1ccc(O)cc1O)c1ccc2c(c1)OCCO2

Output:
-6.46
0.773

----------
- PROTOCOL: viability loss with TRAIL in NB7+C8 cells, primary screen, TRAIL sensitizer project, cell-based, ATPlite luminescence (AID 624354)
- CONDITIONS USED: at 10 µM
Among all 360,000 compounds or so, about 3,800 (1.1%) were called active.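 The calls were made as follows: active = compounds causing at least 50% loss of cell viability in the single-dose screen, relative to plate controls; inactive = the rest.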 This is one part of a sample in which actives are shown more often than they occur.
Mark one answer only. Choices: Yes (active), No (inactive)

Use the examples below as a reference point.
Cc1cccc(NS(=O)(=O)c2ccc(C)c(C(=O)NCc3cccnc3)c2)c1	No
COc1ccc(N2CC(C(=O)N[C@@H](C)C(=O)N3CCCCC3)CC2=O)cc1 (stereo not given in full)	No
O=C(Cn1c2[n+](c3ccc(C(F)(F)F)cc31)CCCCC2)Nc1c(F)cccc1F	No

Input: Tell me the assay call for CSc1nnc(NC(=O)c2nc(S(=O)(=O)Cc3ccc(C)cc3)ncc2Cl)s1 please.
Output: Yes

Input: Tell me the assay call for COc1ccc(NC(=O)C2(C)Cc3c(-c4cccc(NC(C)=O)c4)ccnc3O2)cc1OC (stereo not given) please.
Output: No

Input: Tell me the assay call for COc1ccc(OC)c(-n2nnnc2SCC(=O)Nc2cc(C)ccc2OC)c1 please.
Output: No

Input: Tell me the assay call for CC(=O)Nc1c(-c2ccc(C)cc2)nc2ccc(Cl)cn12 please.
Output: No

Input: Tell me the assay call for COc1ccc(-c2nc3ccc(Br)cn3c2Cc2ccc(C)cc2)cc1OC please.
Output: No

Input: Tell me the assay call for Cc1ccc(-c2cn3cc([N+](=O)[O-])ccc3n2)cc1 please.
Output: Yes

Input: Tell me the assay call for COc1ccc(CN2C[C@H]3CON(C)[C@H]3C[C@H]2c2ccc(-c3cccc(F)c3)cc2)cc1 please.
Output: No

----------
- PROTOCOL: viability loss with TRAIL in NB7+C8 cells, primary screen, TRAIL sensitizer project, cell-based, ATPlite luminescence (AID 624354)
- CONDITIONS USED: at 10 µM
Screen size: about 360,000 compounds; about 3,800 (1.1%) were called active.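 Rule for the calls: active = compounds causing at least 50% loss of cell viability in the single-dose screen, relative to plate controls; inactive = the rest.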 Shown is part of a subset that was picked to be rich in actives.
Mark one answer only. Choices: yes (1) (active), no (0) (inactive)

Use the examples below as a reference point.
CNC(=S)N1N=C(c2ccccc2)CC1c1ccc(Br)cc1 (stereo unspecified)	yes (1)
COc1ccc(CCNC(=O)CN(c2ccccc2)S(C)(=O)=O)cc1OC	no (0)
Cc1cccc(C)c1NC(=O)C(c1cccc2ccccc12)n1c(=O)c(-c2ccco2)nc2ccccc21 (stereo unspecified)	no (0)
COc1ccc(CCc2nnc(CCC(=O)NCc3cnn(-c4ccccc4C)c3)o2)cc1	no (0)
COc1ccc(C2CC(c3ccccc3)=NN2C(=O)CSc2nccc(=O)[nH]2)cc1 (stereo unspecified)	no (0)

Input: Tell me the assay call for COc1ccc(N2c3ccccc3CN(Cc3ccccc3)[C@@H](C)[C@H]2Cc2ccc(-c3ccccc3)cc2)cc1 please.
Output: no (0)

Input: Tell me the assay call for Cc1cccc(N(Cc2ccccc2)C(=O)c2cc(S(=O)(=O)N3CCOCC3)ccc2F)c1 please.
Output: no (0)

Input: Tell me the assay call for CS(=O)(=O)c1cccc(-c2ccc3nncn3c2)c1 please.
Output: no (0)

Input: Tell me the assay call for O=C1C2C3C=CC(C4CC34)C2C(=O)N1c1nccs1 (stereo unspecified) please.
Output: no (0)

Input: Tell me the assay call for C=C1C(=O)[C@]23C[C@H]1CCC2[C@@]1(C)C(C[C@@H]3O)[C@](C)(C(=O)O)CC[C@@H]1O (stereo partly specified) please.
Output: no (0)

Input: Tell me the assay call for COc1ccc(/C=N/NC(=O)Cn2cc(C(F)(F)F)ccc2=O)cc1 please.
Output: no (0)

----------
- PROTOCOL: viability loss with TRAIL in NB7+C8 cells, primary screen, TRAIL sensitizer project, cell-based, ATPlite luminescence (AID 624354)
- CONDITIONS USED: at 10 µM, hits give high values
Among all 360,000 compounds or so, about 3,800 (1.1%) were called active. This excerpt belongs to a sample that is enriched for actives.
PROPERTY NAME: inhibition (viability loss, TRAIL sensitization) (%)
Answers are plain numbers, in %.

Examples with answers:
O=C(CCCCCCCC(=O)N1CCCCC1)N1CCCCC1	1.6
COc1ccc(S(=O)(=O)N2CCCC(C(=O)NCCCn3ccnc3)C2)cc1OC (stereo unspecified)	-12.7
CCOc1ccc(NC(=O)C2CCCN(C(=O)Nc3ccccc3)C2)cc1 (stereo unspecified)	-15.9

Provide each entry's inhibition (viability loss, TRAIL sensitization) from the list below.
1. CCOC(=O)CCc1c(C)c2ccc(OCc3nn[nH]n3)c(C)c2oc1=O
2. CCOC(=O)c1[nH]c(C)c(C(=O)OCC(=O)N2c3ccccc3CC2C)c1C (stereo unspecified)
3. CC(=C/c1ccccc1)/C=N/NC(=O)c1cc(C)oc1C

Output:
1. -5.29
2. 6.75
3. 54.5

Data credit: PubChem BioAssay AID624354
